system: MM.1S cells; assay: Inhibitory effect on the proliferation of MM.1S, MTS cell viability test; type: cell-based; conditions: Homo sapiens, MM1.S, 168 h, multiple myeloma MM.1S cells, 7 days incubation, read-out: Tumor cell inhibitory activity
Readout Kind: IC50

Measured IC50, N#CC1(c2ccc(Cl)cc2)CCN(C(=O)CCCOc2cccc3c2CN(C2CCC(=O)NC2=O)C3=O)CC1 (stereo not shown) : 0.1 to 1 µM

IC50 recorded for this compound, O=C1CCC(N2Cc3c(CCCCCN4CCC5(CC4)OCc4cc(Cl)ccc45)cccc3C2=O)C(=O)N1 (stereo not shown) , is 0.1 to 1 µM

Per the record, O=C1CCC(N2Cc3c(CCCCCN4CCCc5cc(Br)ccc54)cccc3C2=O)C(=O)N1 (stereo not shown) has IC50 of 0.1 to 1 µM

Memo: CC(=O)N[C@@H](CCCc1cccc2c1CN(C1CCC(=O)NC1=O)C2=O)c1nc2cccc(Br)c2[nH]1 (stereo partly shown) , reported IC50: 0.1 to 1 µM

Quick note, IC50 for O=C1CCC(N2Cc3c(OCCCCC(=O)N4CCCc5ccccc54)cccc3C2=O)C(=O)N1 (stereo not shown) landed at < 0.1 µM

For reference, reported IC50 for O=C1CCC(N2Cc3c(CCCCCN4CCC5(C4)C(=O)Nc4ccccc45)cccc3C2=O)C(=O)N1 (stereo not shown) stands at 0.1 to 1 µM

Summary for this compound, N#CC1(c2ccc(Cl)cc2Cl)CCN(CCCOc2cccc3c2CN(C2CCC(=O)NC2=O)C3=O)CC1 (stereo not shown) : IC50 is < 0.1 µM
